Overview of reported mean nematode size ln(EXT) (ln) across a group of compounds:
Test system: Caenorhabditis elegans N2
Assay: mean nematode size ln(EXT) after 48 h, plate-adjusted (DMSO control set to 6) (ln(EXT), control-adjusted); higher = larger nematodes / less growth inhibition
Settings: 200 µM; exposure time 48 h
READOUT TYPE: mean nematode size ln(EXT) (ln)

COMPOUND | RESULT
CC(C)N(Cc1ccccc1)C(=O)C(C)(C)C | 5.61
O=c1[nH]cc(F)c(=O)[nH]1 | 4.19
CCNc1nc(Cl)nc(NCC)n1 | 5.77
C[C@]12C=CC(=O)C=C1CC[C@H]1[C@@H]3C[C@@H](O)[C@](O)(C(=O)CO)[C@@]3(C)C[C@H](O)[C@@]12F | 5.79
COc1ccc(O)c(C(C)(C)C)c1 | 5.54
O=C(O)C1(C(=O)Nc2ccc(Cl)cc2Cl)CC1 [Cyclanilide] | 5.9

* * *

Tested on: Caenorhabditis elegans N2
Test: mean nematode size ln(EXT) after 48 h, plate-adjusted (DMSO control set to 6) (ln(EXT), control-adjusted); higher = larger nematodes / less growth inhibition
Details: 5 µM; exposure time 48 h
Recorded mean nematode size ln(EXT) (ln) values for a group of compounds are listed next.
READOUT TYPE: mean nematode size ln(EXT) (ln)

COMPOUND | READOUT TYPE | RESULT
O=C(O)[C@@H]1[C@H](C(=O)O)[C@H]2CC[C@@H]1O2 [Endothal] | mean nematode size ln(EXT) (ln) | 5.91
CCC(C)(CC)c1cc(NC(=O)c2c(OC)cccc2OC)on1 | mean nematode size ln(EXT) (ln) | 6.01
Nc1nc(Cl)nc2c1ncn2[C@H]1C[C@H](O)[C@@H](CO)O1 | mean nematode size ln(EXT) (ln) | 5.91
COC(=O)N(OC)c1ccccc1COc1ccn(-c2ccc(Cl)cc2)n1 | mean nematode size ln(EXT) (ln) | 5.83

* * *

Tested on: Caenorhabditis elegans N2
Test: mean nematode size ln(EXT) after 48 h, plate-adjusted (DMSO control set to 6) (ln(EXT), control-adjusted); higher = larger nematodes / less growth inhibition
Conditions: 50 µM; exposure time 48 h
Collected mean nematode size ln(EXT) (ln) values appear next to each entry.
READOUT TYPE: mean nematode size ln(EXT) (ln)

MOLECULE | RECORDED NUMBER
CCCN(CCC)c1c([N+](=O)[O-])cc(S(N)(=O)=O)cc1[N+](=O)[O-] | 5.27
CCCCCCCC/C=C\CCCCCCCC(=O)OC[C@@H](O)[C@H]1OC[C@H](O)[C@H]1O [Sorbitan, mono-(9Z)-9-octadecenoate] | 5.89
NC(=O)Cn1c(=O)cc(CCN2CCN(c3nccc4sccc34)CC2)c2ccc(F)cc21 | 5.71
c1ccc(C2CO2)cc1 (stereo unspecified) [Styrene oxide] | 6.03
Oc1c(Cl)c(Cl)c(Cl)c(Cl)c1Cl | 5.6
Clc1cccc(C(Cl)(Cl)Cl)n1 | 5.92

* * *

Tested on: Caenorhabditis elegans N2
Experiment: mean nematode size ln(EXT) after 48 h, plate-adjusted (DMSO control set to 6) (ln(EXT), control-adjusted); higher = larger nematodes / less growth inhibition
Conditions: 0.5 µM; exposure time 48 h

COMPOUND | STUDY TARGET | mean nematode size ln(EXT) (ln)
FC(F)C(F)(F)OCC(Cn1cncn1)c1ccc(Cl)cc1Cl (stereo not given) | Caenorhabditis elegans N2 | 5.81
CCCCOC(=O)c1ccccc1 [Butyl benzoate] | Caenorhabditis elegans N2 | 6
CCCSP(=O)(OCC)Oc1ccc(Br)cc1Cl (stereo not given) | Caenorhabditis elegans N2 | 5.75
CCCCN(CC)c1c([N+](=O)[O-])cc(C(F)(F)F)cc1[N+](=O)[O-] | Caenorhabditis elegans N2 | 5.76
Nc1ccc(Cc2ccc(N)cc2)cc1 | Caenorhabditis elegans N2 | 5.98
COc1ccc(S(=O)(=O)N2C(=O)[C@@](c3ccccc3OC)(N3C[C@H](O)C[C@H]3C(=O)N(C)C)c3cc(Cl)ccc32)c(OC)c1 | Caenorhabditis elegans N2 | 5.95
COC(=O)Nc1nc2ccccc2[nH]1 [methyl 1H-benzimidazol-2-ylcarbamate] | Caenorhabditis elegans N2 | 5.81
Cc1cc(C)nc(Nc2ccccc2)n1 | Caenorhabditis elegans N2 | 6
CCCCC(CC)CN1C(=O)C2C3C=CC(C3)C2C1=O (mixture of isomers) | Caenorhabditis elegans N2 | 5.99
CCCCCCCCCCCCCCCC | Caenorhabditis elegans N2 | 5.93
Cc1cccc(C)c1N | Caenorhabditis elegans N2 | 5.87
Nc1c(Cl)cc([N+](=O)[O-])cc1Cl | Caenorhabditis elegans N2 | 6.01
C#CC(C)(C)NC(=O)c1cc(Cl)cc(Cl)c1 [Propyzamide] | Caenorhabditis elegans N2 | 5.98
CCCOc1sc(C(=O)N2CCC(c3cc(CN)ccc3F)CC2)c(C)c1Br | Caenorhabditis elegans N2 | 5.68
COCCOCCOCCOC | Caenorhabditis elegans N2 | 5.75

* * *

Test system: Caenorhabditis elegans N2
Test: mean nematode size ln(EXT) after 48 h, plate-adjusted (DMSO control set to 6) (ln(EXT), control-adjusted); higher = larger nematodes / less growth inhibition
Conditions: 0.5 µM; exposure time 48 h
Structures can show the parent of a compound that is named as a salt.
Below: a set of entries, each annotated with reported mean nematode size ln(EXT) (ln).

MOLECULE | mean nematode size ln(EXT) (ln)
CCCCOCCO [2-Butoxyethanol] | 5.93
CC(=O)OC/C=C(\C)CCC=C(C)C [Geranyl acetate] | 5.79
CN1CCN(Cc2cc(-c3ccc4[nH]c(=O)oc4c3)co2)[C@@H](c2ccc(F)cc2)C1 | 5.7
CN(C)NC(=O)CCC(=O)O [Daminozide] | 6.43
CCc1cc(SCc2sc(-c3ccc(C(F)(F)F)cc3)nc2CN2CCN(c3ccc(OC)cc3)CC2)ccc1OCC(=O)O | 6
CC(C)(C)OOC(C)(C)CCC(C)(C)OOC(C)(C)C [2,5-Dimethyl-2,5-bis(tert-butylperoxy)hexane] | 5.81
CN(C)C(=O)NC1(c2ccccc2)CCN(CC[C@@]2(c3ccc(F)c(F)c3)CN(C(=O)c3ccccc3)CCO2)CC1 | 5.89
CCNc1ccccc1 [N-Ethyl aniline] | 5.68
CN(C)c1ccc(C(=O)c2ccc(N(C)C)cc2)cc1 [Michler's ketone] | 5.78
OCCN(CCO)CCO [Triethanolamine] | 5.65
CCCCCCCC(=O)O [Octanoic acid] | 6
c1ccc2c(c1)Cc1ccccc1-2 [Diphenylenemethane] | 6.07
Cc1ccc2ncccc2c1 [6-Methylquinoline] | 5.98
CCN(CC)CCNc1ccc(CNC=O)c2sc3ccc(OC)cc3c(=O)c12 | 5.89
CCC1(c2ccccc2)C(=O)NC(=O)NC1=O [Phenobarbital sodium salt] | 5.87
CSc1nnc(C(C)(C)C)c(=O)n1N [Metribuzin] | 5.83
Cc1ccc(O)cc1 [4-Methylphenol] | 5.84
Cc1cnc(C2=NC(=O)C(C)(C(C)C)N2)c(C(=O)O)c1 (stereo not drawn) [Imazapic] | 5.98
CCC(C)(C)c1ccc(O)c(C(C)(C)CC)c1 [Phenol, 2,4-bis(1,1-dimethylpropyl)-] | 5.8
CC(C)N(C(=O)SCC(Cl)=C(Cl)Cl)C(C)C [Tri-allate] | 5.72
CCCCOC(=O)c1ccccc1C(=O)O [Monobutyl phthalate] | 6.02
CC(C)(C)c1ccccc1O [2-tert-Butylphenol] | 5.96
CNC(=O)Oc1cccc(/N=C/N(C)C)c1 [Formetanate hydrochloride] | 5.85
Cc1ncc(CO)c(CO)c1O [Pyridoxine] | 5.84
N#C/N=C1\SCCN1Cc1ccc(Cl)nc1 [Thiacloprid] | 5.99
c1ccc(-c2ccccc2)cc1 [Biphenyl] | 5.85
COP(=O)(OC)O/C(C)=C/C(=O)N(C)C [Dicrotophos] | 6.11
Nc1ccc(N=Nc2ccccc2)cc1 [4-Aminoazobenzene] | 5.63

* * *

Tested on: Caenorhabditis elegans N2
Experiment: lowest effective concentration for larval growth inhibition (size below effect threshold); higher = less potent
Conditions: exposure time 48 h
READOUT TYPE: lowest effective concentration

COMPOUND | READOUT TYPE | RESULT
O=C(O)c1nc(Cl)ccc1Cl [Clopyralid-olamine] | lowest effective concentration | > 200 µM
Nc1nc(=S)c2[nH]cnc2[nH]1 | lowest effective concentration | > 200 µM
CCC/C(=N\OCC)C1=C(O)CC(CC(C)SCC)CC1=O (stereo not drawn) | lowest effective concentration | 200 µM
CCOC(=O)[C@]1(c2ccccc2)Oc2ccccc2[C@@H]1N | lowest effective concentration | 10 µM
NC(=O)Cn1c(=O)cc(CCN2CCN(c3nccc4sccc34)CC2)c2ccc(F)cc21 | lowest effective concentration | 200 µM
Cc1ccc(N)cc1 | lowest effective concentration | > 200 µM
O=C(O)COc1ccc(Cl)cc1Cl | lowest effective concentration | > 200 µM
C/C=C\c1ccc(O)c(OC)c1 | lowest effective concentration | > 200 µM
